Source listed as patent EP2905024A1.

Entries and their EC50
System: subgenomic HCV genotype 1b replicon, I389/NS3-3'/ LucUbiNeo-ET
Assay: in vitro antiviral activity: luciferase assay in LucUbiNeo-ET HCV replicon cells
Format: cell-based
Details: Hepatitis C virus, 48 h, 2 days of incubation, luciferase readout, mean of duplicates

compound	result
Cn1c(=O)c(-c2ccc(F)cc2)cc2c(N3CCCC3)nc(N)nc21 [Example 43]	5 to 22 µM
Nc1nc(Nc2ccccc2)nc2c1cc(-c1c(Cl)cccc1Cl)c(=O)n2CCO [Example 59]	1 to 5 µM
Cn1c(=O)c(-c2c(F)cccc2F)cc2c(N)nc(Nc3ccccc3)nc21 [Example 47]	< 1 µM

For CCCOCCNc1nc(N)nc2c1cc(-c1ccc(F)cc1)c(=O)n2C [Example 41] the compound record lists EC50 as 1 to 5 µM

Value of measured EC50 for the entry O=c1[nH]c2nc(Nc3ccccc3)[nH]c(=O)c2cc1-c1ccccc1 [Example 30] : 5 to 22 µM

EC50 for CCCCCNc1nc(N)nc2c1cc(-c1ccc(F)cc1)c(=O)n2C [Example 42] is 5 to 22 µM

// recorded EC50 for CCCCCNc1nc(N)nc2[nH]c(=O)c(-c3c(Cl)cccc3Cl)cc12 [Example 28] : 1 to 5 µM

Input Cn1c(=O)c(-c2c(Cl)cccc2Cl)cc2c(N)nc(Nc3ccccc3)nc21 [Example 48] . Output EC50: < 1 µM

Memo: CCCOCCNc1nc(Nc2ccccc2)nc2c1cc(-c1c(Cl)cccc1Cl)c(=O)n2C [Example 46] , reported EC50: 5 to 22 µM
